# Test system: KAI3 (IL-2 2.5 ng/mL);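 note: normalised to DMSO-only wells as negative and benzethonium chloride as positive control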
# METHOD_DESCRIPTION: percent inhibition of viability; higher = more inhibition
# ASSAY_SETUP: 72 h; 10 nM
RECORDED_ENDPOINT: percent inhibition of viability (%)
One number for each entry, in %.

Consider the following illustrative entries.
[
  {
    "COMPOUND": "CC(=O)NCC(=O)N1[C@@H]2CC[C@H]1c1ccc(Nc3ncc(C(F)(F)F)c(NC4CCC4)n3)cc12 (max concentration tested 10000 nM)",
    "percent inhibition of viability [%]": 18.3
  },
  {
    "COMPOUND": "COc1cc2c(cc1O)CC[C@@H]1[C@@H]2CC[C@]2(C)[C@@H](O)CC[C@@H]12 [2-methoxyestradiol] (max concentration tested 10000 nM)",
    "percent inhibition of viability [%]": -3.7
  },
  {
    "COMPOUND": "O=NN(CCCl)C(=O)NCCCl [Carmustine] (max concentration tested 10000 nM)",
    "percent inhibition of viability [%]": 6.82
  },
  {
    "COMPOUND": "CC(=O)c1c(C)c2cnc(Nc3ccc(N4CCNCC4)cn3)nc2n(C2CCCC2)c1=O [Palbociclib] (max concentration tested 10000 nM)",
    "percent inhibition of viability [%]": -10.6
  }
]

Need percent inhibition of viability for each of these compounds.
1. NC(=O)c1ccc(I)c([N+](=O)[O-])c1 [Iniparib] (max concentration tested 10000 nM)
2. Cn1cnc2c(F)c(Nc3ccc(Br)cc3Cl)c(C(=O)NOCCO)cc21 [Selumetinib] (max concentration tested 10000 nM)
3. N#CC(c1ccnc(OCc2ccc(CN3CCOCC3)cc2)n1)c1nc2ccccc2s1 (centres undefined) [Bentamapimod] (max concentration tested 10000 nM)
4. Cc1cnc(NC(=O)Nc2cc(Br)c(C)cc2OC[C@@H]2CNCCO2)cn1 [Rabusertib] (max concentration tested 1000 nM)
5. O=C1NC(=O)/C(=C/c2ccc3nccc(-c4ccncc4)c3c2)S1 (max concentration tested 10000 nM)
6. COc1cc(O)c2c(c1)/C=C/C[C@H](O)[C@H](O)C(=O)/C=C\C[C@H](C)OC2=O [(5Z)-7-Oxozeaenol] (max concentration tested 10000 nM)
7. CC[C@]1(O)C[C@@H]2CN(CCc3c([nH]c4ccccc34)[C@@](C(=O)OC)(c3cc4c(cc3OC)N(C)[C@H]3[C@@](O)(C(=O)OC)[C@H](OC(C)=O)[C@]5(CC)C=CCN6CC[C@]43[C@@H]65)C2)C1 [Vinblastine] (max concentration tested 1000 nM)
8. COc1cccc2c1c(O)c(C(=O)N(C)c1ccc(C(F)(F)F)cc1)c(=O)n2C [Tasquinimod] (max concentration tested 10000 nM)

Reply |
8.8
0.73
-7.11
3.9
-4.46
0.75
45.5
7.35
